target: hNTS2 (Homo sapiens); construct: expressed in transfected cells; host or cells: CHO-K1; experiment: Radioligand competition binding with [3H]NT, membranes of CHO-K1 cells expressing hNTS2; conditions: Table 2; hNTS2 over hNTS1
Sequence (O95665 whole entry): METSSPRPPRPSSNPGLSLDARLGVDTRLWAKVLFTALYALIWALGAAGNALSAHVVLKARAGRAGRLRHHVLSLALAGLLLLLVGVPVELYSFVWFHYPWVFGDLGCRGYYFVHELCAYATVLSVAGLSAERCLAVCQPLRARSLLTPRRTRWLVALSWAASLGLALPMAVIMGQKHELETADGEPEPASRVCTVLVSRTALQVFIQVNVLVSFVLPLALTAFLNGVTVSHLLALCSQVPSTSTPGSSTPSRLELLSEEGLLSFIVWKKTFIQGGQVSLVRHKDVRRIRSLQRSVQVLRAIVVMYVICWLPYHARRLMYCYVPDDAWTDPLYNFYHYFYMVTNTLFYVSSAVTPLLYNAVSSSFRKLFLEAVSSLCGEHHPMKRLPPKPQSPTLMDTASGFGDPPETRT
Where a SMILES comes first, the peptide text is derived from it. [ ]: non-standard residue; d: D form. Orn = NCCC[C@H](N)C(=O)O
Each entry below carries its reported hNTS2 Selectivity.

Compound	hNTS2 Selectivity
CC[C@H](C)[C@H](NC(=O)[C@H](Cc1ccc(O)cc1)NC(=O)[C@@H]1CCCN1C(=O)[C@@H](CCCN)NC(=O)[C@H](N)CCCN)C(=O)N[C@@H](CC(C)C)C(=O)O [NT28, [D-Orn^8,D-Orn^9]NT(8-13)]	0.3
CC[C@H](C)[C@H](NC(=O)[C@H](Cc1ccc(O)cc1)NC(=O)[C@@H]1CCCN1C(=O)[C@@H](CCCN)NC(=O)[C@@H](N)CCCN)C(=O)N[C@@H](CC(C)C)C(=O)O [NT26, [L-Orn^8,D-Orn^9]NT(8-13)]	0.3
CC[C@H](C)[C@H](NC(=O)[C@H](Cc1c[nH]c2ccccc12)NC(=O)[C@@H]1CCCN1C(=O)[C@H](CCCNC(=N)N)NC(=O)[C@H](N)CCCCN)C(=O)N[C@@H](CC(C)C)C(=O)O [NT67T, [D-Lys^8,L-Trp^11]NT(8-13)] (H-[dK]RPWIL-OH; N-terminus and C-terminus assumed)	2.2
CC[C@H](C)[C@H](NC(=O)[C@H](Cc1ccc(O)cc1)NC(=O)[C@@H]1CCCN1C(=O)[C@H](CCCNC(=N)N)NC(=O)[C@@H](N)CCCN)C(=O)N[C@@H](CC(C)C)C(=O)O [NT21, [L-Orn^8]NT(8-13)] (H-[Orn]RPYIL-OH; N-terminus and C-terminus assumed)	0.2

----------
biological target: hNTS2 (Homo sapiens); construct: expressed in transfected cells; host or cells: CHO-K1; test: Radioligand competition binding with [3H]NT, membranes of CHO-K1 cells expressing hNTS2; details: Table 2; read-out: hNTS2 Geometric Mean ∀ SEM (equilibrium dissociation constant Kd)
Where a SMILES comes first, the peptide text is derived from it. [ ]: non-standard residue; d: D form. Ala(indol-4-yl) = N[C@@H](Cc1cccc2[nH]ccc12)C(=O)O; 1Nal = N[C@@H](Cc1cccc2ccccc12)C(=O)O; NMeR = CN[C@@H](CCCNC(=N)N)C(=O)O; pGlu = O=C1CC[C@@H](C(=O)O)N1; Tle = CC(C)(C)[C@H](N)C(=O)O; dOrn = NCCC[C@@H](N)C(=O)O
# note: exactly 10 nM is not below, so it is rule not met; use rule met for Kd strictly under it

Compound	Discrete label
CC[C@H](C)[C@H](NC(=O)[C@H](Cc1ccc(O)cc1)NC(=O)[C@@H]1CCCN1C(=O)[C@H](CCCNC(=N)N)NC(=O)[C@H](N)CCCN)C(=O)N[C@@H](CC(C)C)C(=O)O [NT22, [D-Orn^8]NT(8-13)] (H-[dOrn]RPYIL-OH; N-terminus and C-terminus assumed)	rule met
CC(C)C[C@H](NC(=O)[C@@H](NC(=O)[C@H](Cc1cccc2[nH]ccc12)NC(=O)[C@@H]1CCCN1C(=O)[C@H](CCCNC(=N)N)NC(=O)[C@@H](N)CCCNC(=N)N)C(C)(C)C)C(=O)O [NT65, [neo-Trp^11,tert-Leu^12]NT(8-13)] (H-RRP[Ala(indol-4-yl)][Tle]L-OH; N-terminus and C-terminus assumed)	rule met
CN[C@@H](CCCNC(=N)N)C(=O)N[C@H](CCCN)C(=O)N1CCC[C@H]1C(=O)N[C@@H](Cc1cccc2[nH]ccc12)C(=O)N[C@H](C(=O)N[C@@H](CC(C)C)C(=O)O)C(C)(C)C [NT78] (H-[NMeR][dOrn]P[Ala(indol-4-yl)][Tle]L-OH; C-terminus assumed)	rule not met
CC[C@H](C)[C@H](NC(=O)[C@H](Cc1ccc(O)cc1)NC(=O)[C@@H]1CCCN1C(=O)[C@H](CCCNC(=N)N)NC(=O)[C@H](N)CCCCN)C(=O)N[C@@H](CC(C)C)C(=O)O [NT02, [D-Lys^8]NT(8-13)] (H-[dK]RPYIL-OH; N-terminus and C-terminus assumed)	rule met
CC(C)C[C@H](NC(=O)[C@@H](NC(=O)[C@H](Cc1cccc2[nH]ccc12)NC(=O)[C@@H]1CCCN1C(=O)[C@H](CCCNC(=N)N)NC(=O)[C@H](N)CCCCN)C(C)(C)C)C(=O)O [NT66L] (H-[dK]RP[Ala(indol-4-yl)][Tle]L-OH; N-terminus and C-terminus assumed)	rule met
CC[C@H](C)[C@H](NC(=O)[C@@H]1Cc2ccccc2CN1C(=O)[C@@H]1CCCN1C(=O)[C@H](CCCNC(=N)N)NC(=O)[C@@H](N)CCCNC(=N)N)C(=O)N[C@@H](CC(C)C)C(=O)O [NT47, [L-TIC^11]NT(8-13)]	rule not met
CC[C@H](C)[C@H](NC(=O)[C@H](Cc1cccc2ccccc12)NC(=O)[C@@H]1CCCN1C(=O)[C@H](CCCNC(=N)N)NC(=O)[C@H](CCCNC(=N)N)NC(=O)[C@@H]1CCCN1C(=O)[C@H](CCCCN)NC(=O)[C@H](CC(N)=O)NC(=O)[C@H](CCC(=O)O)NC(=O)[C@H](Cc1ccc(O)cc1)NC(=O)[C@H](CC(C)C)NC(=O)[C@@H]1CCC(=O)N1)C(=O)N[C@@H](CC(C)C)C(=O)O [NT62, [L-3,1-Nal^11]NT(1-13)] ([pGlu]LYENKPRRP[1Nal]IL-OH; C-terminus assumed)	rule not met
